MEASURED TARGET: KRas G12C (Homo sapiens, UniProt P01116, G12C)
Construct: NCI-H358 cells (ATCC CRL-5807) express KRas G12C
Sequence (P01116 1-188 isoform P01116-2 G12C): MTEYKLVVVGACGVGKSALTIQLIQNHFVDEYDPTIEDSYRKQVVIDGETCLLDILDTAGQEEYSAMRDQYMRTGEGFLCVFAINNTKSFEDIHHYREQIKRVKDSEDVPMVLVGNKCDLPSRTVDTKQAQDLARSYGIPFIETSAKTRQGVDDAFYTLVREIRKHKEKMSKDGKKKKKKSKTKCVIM
ASSAY OVERVIEW: Inhibition of KRas G12C-dependent cell growth: Phospho-ERK in NCI-H358 cells
Assay type: cell-based
RUN CONDITIONS: NCI-H358 cells expressing KRas G12C; Phospho-ERK (Thr202/Tyr204) normalized to GAPDH; 3 hours compound; 4 parameter fit
Protocol: The cellular inhibition of KRAs G12C by exemplary compounds of the present invention was determined by measuring the amount of a downstream marker of KRas activity, phosphorylated ERK (“Phospho-ERK”). […] The amount Phospho-ERK was determined using an antibody specific for the phosphorylated form of ERK and compared to the amount of GAPDH. […] The pERK(Thr202/Tyr204) signal was normalized with the GAPDH signal and percent of DMSO control values were calculated. […]
Each item that follows carries a reported IC50.
RECORDED METRIC: IC50 (nM)

[[record]]
smiles_str = "CN1CCC[C@H]1COc1nc(N2CCN(C(=O)/C=C/CF)[C@@H](CC#N)C2)c2cnc(-c3cncc4cccc(Cl)c34)c(F)c2n1"
measured_target = "KRas G12C (Homo sapiens, UniProt P01116, G12C)"
observed_result = 26

[[record]]
smiles_str = "C=C(F)C(=O)N1CCN(c2nc(OCCCN3C[C@@H]4C[C@H]3CO4)nc3c(F)c(-c4cncc5cccc(Cl)c45)ncc23)C[C@@H]1CC#N"
measured_target = "KRas G12C (Homo sapiens, UniProt P01116, G12C)"
observed_result = 168

[[record]]
smiles_str = "C=C(F)C(=O)N1CCN(c2nc(OC[C@@H]3CCCN3CC)nc3c(F)c(-c4cccc5ccc(F)c(Cl)c45)ncc23)C[C@@H]1CC#N"
measured_target = "KRas G12C (Homo sapiens, UniProt P01116, G12C)"
observed_result = 15

[[record]]
smiles_str = "C=CC(=O)N1CCN(c2ncnc3c(F)c(-c4cccc5cc(Cl)ccc45)ncc23)CC1"
measured_target = "KRas G12C (Homo sapiens, UniProt P01116, G12C)"
observed_result = 10000

[[record]]
smiles_str = "C=C(F)C(=O)N1CCN(c2nc(OC[C@@H]3C[C@@H](OC)CN3C)nc3c(F)c(-c4cccc5cccc(Cl)c45)ncc23)C[C@@H]1CC#N"
measured_target = "KRas G12C (Homo sapiens, UniProt P01116, G12C)"
observed_result = 38

